- Tested on: E. coli ATCC25922
- Type: cell-based, Escherichia coli
- Cond: ATCC25922, 1 h, pH 6
Non-standard residues stand in square brackets, D forms with d. Residues, ends and D or L forms follow the SMILES beside them.
Assay metric: MIC after pH treatment, pH 6 (µM)

>  <Compound>
CC(C)C[C@H](NC(=O)[C@H](CC(C)C)NC(=O)[C@H](CCCNC(=N)N)NC(=O)[C@H](CC(C)C)NC(=O)[C@H](CC(C)C)NC(=O)[C@H](CCCNC(=N)N)NC(=O)[C@H](CCCNC(=N)N)NC(=O)CNC(=O)[C@H]1CCCN1C(=O)[C@H](CCCNC(=N)N)NC(=O)[C@H](CCCNC(=N)N)NC(=O)[C@H](CC(C)C)NC(=O)[C@H](CC(C)C)NC(=O)[C@H](CCCNC(=N)N)NC(=O)[C@H](CC(C)C)NC(=O)[C@@H](N)CC(C)C)C(N)=O [LRpG] (H-LLRLLRR[dP]GRRLLRLL-NH2)

>  <Assay metric>
MIC after pH treatment, pH 6

>  <Units text>
µM

>  <Measured value>
2

$$$$

# credit: paper PMC7037546
